Provide the reported EC50 of each item.
Tested on: HIV-1RF in CEM-SS cells
test: microbe, parasite or virus in culture
setup-conditions: Human immunodeficiency virus 1, CEM-SS, read-out: EC50 (μM), 50% inhibitory concentration for cytopathicity
Quick note: give the figure in µM, leave out the unit.

stdin: # query: EC50 of entry COC(=O)CCCC=C(c1cc(Cl)c(OC)c(C(=O)OC)c1)c1cc(Cl)c(OC)c(C(=O)OC)c1
stdout: 0.013

stdin: # query: EC50 of entry COC(=O)c1cc(C(=CCCN=[N+]=[N-])c2cc(Br)c(OC)c(C(=O)OC)c2)cc(Br)c1OC
stdout: 1.1

----------
Test system: HIV-1 Clade D in PBMC
test: microbe, parasite or virus in culture
Assay type: cell-based
setup-conditions: Human immunodeficiency virus 1, PBMC
readout: EC50 (nM)
Quick note: give the figure in nM, leave out the unit.

stdin: # query: EC50 of entry COC(=O)CCCC=C(c1cc(Cl)c(OC)c(C(=O)OC)c1)c1cc(Cl)c(OC)c(C(=O)OC)c1 [Compound 22]
stdout: 1020

----------
Provide the reported EC50 of each item.
Test system: HIV-1RF in CEM-SS cells
test: microbe, parasite or virus in culture
setup-conditions: Human immunodeficiency virus 1, CEM-SS, read-out: EC50 (μM), 50% inhibitory concentration for cytopathicity

stdin: # query: EC50 of entry COC(=O)c1cc(C(=CCCO)c2cc(Cl)c(OC)c(C(=O)OC)c2)cc(Cl)c1OC
stdout: 8.6 µM

stdin: # query: EC50 of entry CC1(C)OC(=O)c2cc(C(=CCCO)c3cc(Cl)c4c(c3)C(=O)OC(C)(C)O4)cc(Cl)c2O1
stdout: > 6.9 µM

stdin: # query: EC50 of entry COC(=O)c1cc(C(=CCCO)c2cc(Br)c(OC)c(C(=O)OC)c2)cc(Br)c1OC
stdout: 6 µM

stdin: # query: EC50 of entry COc1c(Cl)cc(C(=CCC(=O)O)c2cc(Cl)c(OC)c(C(=O)O)c2)cc1C(=O)O
stdout: > 6.9 µM

stdin: # query: EC50 of entry COC(=O)c1cc(C(=CCCOS(C)(=O)=O)c2cc(Cl)c(OC)c(C(=O)OC)c2)cc(Cl)c1OC
stdout: > 6.9 µM

stdin: # query: EC50 of entry COC=C(c1cc(Br)c(OC)c(C(=O)OC)c1)c1cc(Br)c(OC)c(C(=O)OC)c1
stdout: > 6.9 µM

stdin: # query: EC50 of entry COC(=O)C=C(c1cc(Cl)c(OC)c(C(=O)OC)c1)c1cc(Cl)c(OC)c(C(=O)OC)c1
stdout: > 6.9 µM

----------
Test system: HIV-1 NL4-3, RT Y188C
Type: cell-based
readout: pEC50
FYI, pEC50 means -log10 of a concentration in mol per litre.

stdin: # query: pEC50 of entry COC(=O)CCCC=C(c1cc(Cl)c(OC)c(C(=O)OC)c1)c1cc(Cl)c(OC)c(C(=O)OC)c1
stdout: 4.97

----------
Test system: HIV-1 NL4-3, RT V106A
Type: cell-based
readout: pEC50
FYI, pEC50 means -log10 of a concentration in mol per litre.

stdin: # query: pEC50 of entry COC(=O)CCCC=C(c1cc(Cl)c(OC)c(C(=O)OC)c1)c1cc(Cl)c(OC)c(C(=O)OC)c1
stdout: 4.90
